# target-of-assay: PD-1/PD-L1 (Homo sapiens)
# Sequence (Q9NZQ7 19-238 limits assumed): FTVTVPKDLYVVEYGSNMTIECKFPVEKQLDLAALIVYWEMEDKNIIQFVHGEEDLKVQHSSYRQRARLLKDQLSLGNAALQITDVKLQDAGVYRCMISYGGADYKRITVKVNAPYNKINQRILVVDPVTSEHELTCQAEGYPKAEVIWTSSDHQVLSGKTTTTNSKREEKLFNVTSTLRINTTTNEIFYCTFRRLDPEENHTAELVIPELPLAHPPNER
# method-summary: PD-1/PD-L1 biochemical protein-protein interaction assay (ALPHA)
# test-conditions: 0.3 nM His tagged PD-L1, 2.5 nM biotinylated Fc-PD-1, 60 minutes at 25° C., read-out: IC50 PD-L1-PD-1 Alpha IC50-mono PD-L1-fcP-D1
pIC50: −log10 of the molar value.
reported-property: pIC50

Cc1c(COc2cc(OCc3cncc(C#N)c3)c(CNCCO)cc2Cl)cccc1-c1cccc(COc2cc(OCC3CC3)c(CNCCO)cc2Cl)c1C | 6.73
Cc1c(COc2ccc(CNCCO)cc2Cl)cccc1-c1cccc(COc2cc(OCc3cncc(C#N)c3)c(CNCCO)cc2Cl)c1C | 7.58
CC(C)(NCc1cc(Cl)c(O[C@H]2CCc3c(-c4cccc(-c5ccc(S(N)(=O)=O)cc5)c4Cl)cccc32)nc1OCc1cncc(C#N)c1)C(=O)O | 10.12
Cc1c(COc2nc(OCc3cc(C#N)cc(C#N)c3)c(CNC[C@@H](O)CC(=O)O)cc2Br)cccc1-c1cccc(-c2ccc(OCCNC[C@@H](O)CC(=O)O)cc2)c1C | 9.69

I = Cc1c(COc2cc(OCc3cncc(C#N)c3)c(CN[C@@](C)(CO)C(=O)O)cc2Cl)cccc1-c1cccc(-c2ccc3c(cnn3CCN3CC[C@@H](O)C3)n2)c1C
II = Cc1c(COc2cc(OCc3cncc(C#N)c3)c(CN3CC[C@@H](O)C3)cc2Cl)cccc1-c1cccc(-c2ccc(CNCCCCC(=O)O)cc2)c1C
Problem: Out of I and II , name the one with the higher pIC50. Write down the label of the entry you select.
Solution: I

====

# target-of-assay: PD-1/PD-L1 interaction (Homo sapiens)
# Construct: expressed in transfected cells; host or cells: CHO cells (aAPC-PD-L1) co-cultured with Jurkat cells overexpressing PD-1 and an NFAT-luciferase reporter
# Sequence (Q9NZQ7 19-290): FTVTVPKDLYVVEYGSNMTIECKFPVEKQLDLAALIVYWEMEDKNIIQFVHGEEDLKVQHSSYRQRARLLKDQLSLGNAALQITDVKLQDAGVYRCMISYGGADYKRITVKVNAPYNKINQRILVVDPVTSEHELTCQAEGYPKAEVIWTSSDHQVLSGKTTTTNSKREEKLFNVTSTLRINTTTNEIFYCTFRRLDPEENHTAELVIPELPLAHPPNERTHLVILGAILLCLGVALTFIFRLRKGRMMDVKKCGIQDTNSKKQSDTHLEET
# method-summary: PD-1/PD-L1 NFAT reporter co-culture assay
# Type: cell-based
# test-conditions: Jurkat PD-1 NFAT-luciferase cells co-cultured with aAPC-PD-L1 CHO cells, 6 hrs at 37° C.; read-out: EC50 NFAT Luciferase
pEC50: −log10 of the molar value.
reported-property: pEC50

A = Cc1c(COc2cc(OCc3cncc(C#N)c3)c(CN[C@@](C)(CO)C(=O)O)cc2Cl)cccc1-c1cccc(-c2ccc(C3CCNC3)cc2)c1C (some centres unmarked) [Example 342]
B = Cc1c(COc2cc(OCc3cncc(C#N)c3)c(CNC[C@@H](O)CC(=O)O)cc2Cl)cccc1-c1cccc(-c2ccc3c(CNC[C@@H](O)CC(=O)O)ccc(Cl)c3c2)c1C [Example 359]
Problem: Out of A and B , name the one with the higher pEC50. Write down the label of the entry you select.
Solution: B
(B: 6.67, A: 6.35)

a = COc1nc(OCc2cccc(-c3cccc(-c4ccc(OCCNC[C@H](O)CC(=O)O)cc4)c3C)c2C)c(Cl)cc1CNC[C@H](O)CC(=O)O [Example 110]
b = Cc1c(COc2cc(OCc3cncc(C#N)c3)c(CN[C@@](C)(CO)C(=O)O)cc2Cl)cccc1-c1cccc(-c2ccc(CNCCCS(N)(=O)=O)cc2)c1C [Example 570]
c = COc1cc(-c2cccc(-c3cccc4c3CC[C@@H]4Oc3nc(OC)c(CN[C@@](C)(CO)C(=O)O)cc3Br)c2Cl)ccc1C1=NCCN1 [Example 780]
d = C[C@@](CO)(NCc1cc(Cl)c(O[C@H]2CCc3c(-c4cccc(-c5ccc6c(c5)C[C@H](N)C6)c4Cl)cccc32)nc1OCc1cncc(C#N)c1)C(=O)O [Example 695]
e = Cc1c(COc2cc(OCc3cncc(C#N)c3)c(CN3C[C@@H](O)C[C@H]3C(=O)O)cc2Cl)cccc1-c1cccc(COc2cc(OCc3cncc(C#N)c3)c(CN3C[C@@H](O)C[C@H]3C(=O)O)cc2Cl)c1C [Example 58]
Problem: Please produce an ascending ranking of these compounds based on pEC50. List the labels in the requested order.
Solution: e, a, b, c, d
(e: 6.09, a: 6.45, b: 6.94, c: 7.30, d: 7.59)

I = COc1nc(O[C@H]2CCc3c(-c4cccc(-c5ccc(C6=NCCN6)c(OC)n5)c4Cl)cccc32)c(Br)cc1CNC[C@@H](O)CC(=O)O [Example 787]
II = COc1cc(-c2cccc(-c3cccc4c3CC[C@@H]4Oc3ccc(CN[C@@](C)(CO)C(=O)O)c(OC)n3)c2Cl)ccc1C1=NCCN1 [Example 777]
Problem: # min-compare on pEC50 between I and II Write down the label of the entry you select.
Solution: II

P = COc1nc(OCc2cccc(-c3cccc(COc4nc(OC)c(CN(C)CC(=O)O)cc4Cl)c3C)c2C)c(Cl)cc1CN(C)CC(=O)O [Example 76]
Q = COc1nc(-c2cccc(-c3cccc4c3CC[C@@H]4Oc3nc(OC)c(CN4CCCC(C)(C(=O)O)C4)cc3Cl)c2Cl)ccc1CNC[C@@H]1CCC(=O)N1 (some centres unmarked) [Example 761]
R = Cc1c(COc2cc(OCc3cncc(C#N)c3)c(CN[C@@](C)(CO)C(=O)O)cc2Cl)cccc1-c1cccc(-c2ccc(CN(C)C)cc2)c1Br [Example 483]
Problem: Place the items in sequence of falling pEC50. List the labels in the requested order.
Solution: Q, R, P

====

# target-of-assay: PD-L1 (Homo sapiens)
# Construct: determine if they can specifically dimerize the extracellular domains of PD-L1
# method-summary: PD-L1/PD-L1 dimerization biochemical protein-protein interaction assay (ALPHA)
# Assay type: binding
# test-conditions: compound-induced PD-L1 dimerization, head prints '1 nM' (0.5 nM His-tagged PD-L1 and 0.5 nM FLAG-tagged PD-L1), read-out: AC50 PDL1 Dimer Alpha 1 nM
reported-property: AC50 (µM)

Before answering, review these 6 worked examples.
COc1nc(-c2cccc(-c3cccc(-c4ccc5c(CN(C)C)c[nH]c5c4)c3Cl)c2Cl)ccc1CNC[C@@H]1CCC(=O)N1 [Example 610] | 0.105
Cc1c(COc2cc(OCc3cncc(C#N)c3)c(CNC[C@@H](O)CC(=O)O)cc2Cl)cccc1-c1cccc(-c2ccc3c(c2)CC(NCC2CCC(=O)N2)C3)c1C (some centres unmarked) [Example 439] | 0.154
N#Cc1cncc(COc2nc(OCc3cccc(-c4cccc(COc5nc(OCc6cncc(C#N)c6)c(CNC[C@H](O)CC(=O)O)cc5Br)c4Cl)c3Cl)c(Br)cc2CNC[C@H](O)CC(=O)O)c1 [Example 196] | 0.223
COc1nc(O[C@H]2CCc3c(-c4cccc(-c5cnc6c(CN7CC8(CNC(=O)C8)C7)cn(C)c6n5)c4Cl)cccc32)c(Cl)cc1CN1CCC[C@@H](C(=O)O)C1 [Example 524] | 0.0677
Cc1c(COc2cc(OCc3cncc(C#N)c3)c(CNC[C@@H](O)CC(=O)O)cc2Cl)cccc1-c1cccc(-c2ccc(C3=NCCN3)c(OCCCC#N)c2)c1C [Example 465] | 0.0848
Cn1cc(CN2CC3(CNC(=O)C3)C2)c2ncc(-c3cccc(-c4cccc(-c5cnc6c(CN7CC8(CNC(=O)C8)C7)cn(C)c6n5)c4Cl)c3Cl)nc21 [Example 588] | 0.206

I = COc1nc(O[C@H]2CCc3c(-c4cccc(-c5ccc(C6=N[C@H](C)CN6)c(OC)n5)c4Cl)cccc32)ccc1CN[C@@](C)(CO)C(=O)O [Example 778]
II = Cc1c(COc2cc(OCc3cncc(C#N)c3)c(CNC[C@@H](O)CC(=O)O)cc2Cl)cccc1-c1cccc(-c2ccc(CNC[C@@H]3CCC(=O)N3)cc2)c1C [Example 574]
III = Cc1c(COc2cc(OCc3cncc(C#N)c3)c(CN[C@](C)(CO)C(=O)O)cc2Cl)cccc1-c1cccc(-c2ccc(OCCNCCO)cc2)c1C [Example 511]
IV = Cc1c(COc2nc(OC[C@H]3CCC(=O)N3)c(CNCC(=O)O)cc2Br)cccc1-c1cccc(COc2nc(OC[C@H]3CCC(=O)N3)c(CNCC(=O)O)cc2Br)c1C [Example 129]
Problem: Please produce an ascending ranking of these molecules based on AC50. List the labels in the requested order.
Solution: III, II, IV, I
(III: 0.0369 µM, II: 0.056 µM, IV: 0.167 µM, I: 0.259 µM)

====

# target-of-assay: PD-L1 (Homo sapiens, UniProt Q9NZQ7)
# Construct: determine if they can specifically dimerize the extracellular domains of PD-L1
# method-summary: PD-L1/PD-L1 dimerization biochemical protein-protein interaction assay (ALPHA)
# Type: binding
# test-conditions: compound-induced PD-L1 dimerization, head prints '1 nM' (0.5 nM His-tagged PD-L1 and 0.5 nM FLAG-tagged PD-L1), read-out: AC50 PDL1 Dimer Alpha 1 nM
reported-property: AC50 (nM)

COc1nc(O[C@H]2CCc3c(-c4cccc(-c5ccc(C6=NCCN6)c(OC)n5)c4Cl)cccc32)c(Br)cc1CNC(C)(C)C(=O)O [Example 786] | 12.2

P = Cc1c(COc2cc(O)c(CNCCCP(=O)(O)O)cc2Cl)cccc1-c1cccc(COc2cc(OCc3cncc(C#N)c3)c(CNCCCP(=O)(O)O)cc2Cl)c1C [Example 294]
Q = C[C@@](CO)(NCc1cc(Br)c(OCc2cccc(-c3cccc(-c4ccc5c(c4)C[C@@H](N)C5)c3Cl)c2Cl)nc1OCc1cncc(C#N)c1)C(=O)O [Example 554]
R = COc1nc(-c2cccc(-c3cccc(-c4ccc5c(CNC[C@@H]6CCC(=O)N6)cc(=O)n(C)c5c4)c3Cl)c2Cl)ccc1CNC[C@@H]1CCC(=O)N1 [Example 603]
S = COc1nc(O[C@H]2CCc3c(-c4cccc(-c5cc(C)c(CNC[C@@H]6CCC(=O)N6)c(OC)n5)c4Cl)cccc32)c(Cl)cc1CN1CC[C@H](C(=O)O)C1 [Example 491]
T = COc1nc(-c2cccc(-c3cccc4c3CC[C@@H]4Oc3nc(OC)c(CN4CC[C@H](C(=O)O)C4)cc3Cl)c2Cl)ccc1CN1CC(CO)C1 [Example 704]
Problem: Place the items in sequence of falling AC50. List the labels in the requested order.
Solution: P, R, T, Q, S

I = Cc1c(COc2cc(OCc3cncc(C#N)c3)c(CN[C@@H]3CCC[C@@H]3O)cc2Cl)cccc1-c1cccc(-c2ccc3c(c2)CCC3N2CC[C@H](CC(=O)O)C2)c1C (some centres unmarked) [Example 584]
II = COc1nc(O[C@H]2CCc3c(-c4cccc(-c5ccc(CNC[C@@H]6CCC(=O)N6)cc5)c4Cl)cccc32)c(Cl)cc1CN[C@H]1CCC[C@H]1O [Example 716]
III = COc1ccc(-c2cccc(-c3cccc(COc4cc(OCc5cncc(C#N)c5)c(CN[C@@](C)(CO)C(=O)O)cc4Cl)c3C)c2C)cc1CN [Example 440]
IV = C[C@@](CO)(NCc1cc(Cl)c(OCc2cccc(-c3cccc(COc4cc(OCc5cncc(C#N)c5)c(CN[C@@](C)(CO)C(=O)O)cc4Cl)c3Br)c2Br)cc1OCc1cncc(C#N)c1)C(=O)O [Example 478]
Problem: Please produce an ascending ranking of these compounds based on AC50. List the labels in the requested order.
Solution: II, I, III, IV
(II: 15.1 nM, I: 38.6 nM, III: 113 nM, IV: 268 nM)
